All figures here come from patent US20100010002A1.

systemName: Ba/F3 Bcr-Abl/E255V (Homo sapiens, UniProt P00519, E255V, cells depend on it)
Construct: fused on or other part: P11274 (Breakpoint cluster region protein)
assayOverview: CCK-8 assay, Ba/F3 Bcr-Abl/E255V
Assay type: cell-based
readoutType: GI50 (nM)
Just the number please, in nM, no unit attached.

Sure, the documented GI50 for O=C(C=Cc1ccc(O)c(O)c1)N1CCC(Cc2ccccc2)CC1 is 800

For this compound ( O=C(C=Cc1ccc(O)c(O)c1)N1CCN(Cc2ccccc2)CC1 ), measured GI50 is 2100

* * *

Listing of recorded GI50 by entry.
systemName: Ba/F3 Bcr-Abl/M351T (Homo sapiens, UniProt P00519, M351T, cells depend on it)
Construct: fused on or other part: P11274 (Breakpoint cluster region protein)
assayOverview: CCK-8 assay, Ba/F3 Bcr-Abl/M351T
Type: cell-based
assayConditions: mouse, 72 h
Please reply with the bare figure in µM and do not write the unit itself.

smilesRepr: CC(C)OC(=O)C=Cc1ccc(O)c(O)c1
unitDescriptor: µM
reportedMeasurement: 5.1
--
smilesRepr: CCCOC(=O)C=Cc1ccc(O)c(O)c1
unitDescriptor: µM
reportedMeasurement: 2.2
--
smilesRepr: CCOC(=O)C=Cc1ccc(O)c(O)c1
unitDescriptor: µM
reportedMeasurement: 8.7

Memo: COC(=O)C=Cc1ccc(O)c(O)c1 , reported GI50: 16.1

* * *

systemName: Ba/F3 Bcr-Abl/E255V (Homo sapiens, UniProt P00519, E255V, cells depend on it)
Construct: fused on or other part: P11274 (Breakpoint cluster region protein)
assayOverview: CCK-8 assay, Ba/F3 Bcr-Abl/E255V
Assay type: cell-based
assayConditions: mouse, 72 h
readoutType: GI50 (µM)
Answer with a number only, understood to be in µM.

// sample CCCOC(=O)C=Cc1ccc(O)c(O)c1 , its GI50 was 3.4

* * *

Reported GI50 values for a set of molecules
systemName: Ba/F3 Bcr-Abl/H396P (Homo sapiens, UniProt P00519, H396P, cells depend on it)
Construct: fused on or other part: P11274 (Breakpoint cluster region protein)
assayOverview: CCK-8 assay, Ba/F3 Bcr-Abl/H396P
Format: cell-based
assayConditions: mouse, 72 h
# number only, unit µM dropped from output

Some molecules with known GI50 results, for comparison:
smilesRepr: CC(C)OC(=O)C=Cc1ccc(O)c(O)c1
GI50 [µM]: 10.8

smilesRepr: COC(=O)C=Cc1ccc(O)c(O)c1
GI50 [µM]: 26.2

smilesRepr: CCCOC(=O)C=Cc1ccc(O)c(O)c1
GI50 [µM]: 5.6

Now consider the entry below.
The molecule CCOC(=O)C=Cc1ccc(O)c(O)c1 , when measured on Ba/F3 Bcr-Abl/H396P (Homo sapiens, UniProt P00519, H396P, cells depend on it), yielded GI50 of 16.6

* * *

Recorded GI50, one value per entry.
systemName: Ba/F3 Bcr-Abl/M351T (Homo sapiens, UniProt P00519, M351T, cells depend on it)
Construct: fused on or other part: P11274 (Breakpoint cluster region protein)
assayOverview: CCK-8 assay, Ba/F3 Bcr-Abl/M351T
Assay type: cell-based
Give the value in nM but do not write nM after it.

smilesRepr: O=C(C=Cc1ccc(O)c(O)c1)N1CCN(Cc2ccccc2)CC1
GI50 [nM]: 2200

Let us examine a further case.
Short answer on Ba/F3 Bcr-Abl/M351T (Homo sapiens, UniProt P00519, M351T, cells depend on it) for O=C(C=Cc1ccc(O)c(O)c1)N1CCC(Cc2ccccc2)CC1 , GI50: 2100
